Biological target: T1, D1 domain of human IL-2Rγ extracellular domain expressed with a C-terminal myc-myc-hexahistidine tag (human)
T1 construct: also called human IL2Rγ domain 1
T1 chain: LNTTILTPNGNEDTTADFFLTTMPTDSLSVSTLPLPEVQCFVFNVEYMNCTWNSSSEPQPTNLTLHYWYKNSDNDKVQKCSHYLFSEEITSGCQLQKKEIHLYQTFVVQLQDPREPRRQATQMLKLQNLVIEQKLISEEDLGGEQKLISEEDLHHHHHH
Assay: SPR, mAb captured on anti-hFc, 37 C
In this section we review reported 100 nM Ag Bound values for a set of binders.
Hi! Could you send only the number? It should be in RU, unit omitted.

binder	u	100 nM Ag Bound
H4H12899P (antibody, human IgG4 S228P, kappa, V domains shown, human IgG4) VH: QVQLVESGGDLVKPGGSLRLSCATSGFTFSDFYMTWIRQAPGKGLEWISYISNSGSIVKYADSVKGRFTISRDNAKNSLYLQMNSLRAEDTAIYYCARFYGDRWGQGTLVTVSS VL: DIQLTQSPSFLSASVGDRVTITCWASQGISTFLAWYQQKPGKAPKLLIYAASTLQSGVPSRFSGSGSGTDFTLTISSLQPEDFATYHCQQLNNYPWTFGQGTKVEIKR	RU	1
H4H12863P (antibody, human IgG4 S228P, kappa, V domains shown, human IgG4) VH: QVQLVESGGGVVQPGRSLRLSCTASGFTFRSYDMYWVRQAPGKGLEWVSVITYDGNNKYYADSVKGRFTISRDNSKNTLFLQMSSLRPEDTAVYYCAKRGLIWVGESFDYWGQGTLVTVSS VL: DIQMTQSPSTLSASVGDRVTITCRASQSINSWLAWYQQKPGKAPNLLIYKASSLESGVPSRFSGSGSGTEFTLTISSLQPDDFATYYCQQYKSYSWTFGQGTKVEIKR	RU	39

Next, consider the following binder.
For this binder ( H4H13538P (antibody, human IgG4 S228P, kappa, V domains shown, human IgG4) VH: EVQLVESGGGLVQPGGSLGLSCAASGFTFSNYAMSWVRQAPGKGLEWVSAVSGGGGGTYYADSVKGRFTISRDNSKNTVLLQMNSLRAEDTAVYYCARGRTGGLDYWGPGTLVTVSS VL: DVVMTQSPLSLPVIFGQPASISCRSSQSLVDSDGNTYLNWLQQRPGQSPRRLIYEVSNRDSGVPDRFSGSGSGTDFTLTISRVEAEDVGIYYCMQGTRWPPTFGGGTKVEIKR ), measured 100 nM Ag Bound is 2
